Assay: absolute recovery over vacuum-assisted evaporative concentration; higher = better recovery
Details: wastewater influent; enrichment method: VEC
Readings of absolute recovery for the listed molecules
// return numeric value only (unit: %, not printed)

[[record]]
molecule = "COc1nn(CSP(=S)(OC)OC)c(=O)s1 [Methidathion]"
metric = "absolute recovery"
measurement_unit = "%"
meas_value = 106


Return absolute recovery (reported value) for this molecule: CNC(=O)ON=CC(C)(C)SC [Aldicarb]
91.7

Return absolute recovery (reported value) for this molecule: CCC(=[NH+]OCC=CCl)C1=C([O-])CC(C2CCOCC2)CC1=O (stereo not given) [Tepraloxydim]
102

Return absolute recovery (reported value) for this molecule: [NH3+]CC1(CC(=O)[O-])CCCCC1 [Gabapentin]
98.3

Return absolute recovery (reported value) for this molecule: CCC1(c2ccccc2)C(=O)NCNC1=O [Primidon]
98.5

Return absolute recovery (reported value) for this molecule: CCc1ccc(CCOc2ccc(CC3SC(=O)[N-]C3=O)cc2)nc1 (stereo not given) [Pioglitazone]
104

Return absolute recovery (reported value) for this molecule: CCOP(=O)(OCC)OCC [Triethylphosphat]
79.6

Return absolute recovery (reported value) for this molecule: CC(C)(C)C(=O)C(Oc1ccc(Cl)cc1)n1ccnc1 (stereo not given) [Climbazol]
101

Return absolute recovery (reported value) for this molecule: CC(=O)Nc1c(I)c(NC(C)=O)c(I)c(C(=O)[O-])c1I [Diatrizoate (=Amidotrizoic-acid)]
102

Return absolute recovery (reported value) for this molecule: COC(=O)[N-]S(=O)(=O)c1ccc(N)cc1 [Asulam]
88.4

Return absolute recovery (reported value) for this molecule: CC(COc1ccccc1Cc1ccccc1)[NH+]1CCCCC1 (stereo not given) [Benproperine]
109

Return absolute recovery (reported value) for this molecule: Cc1c(N(C)C)c(=O)n(-c2ccccc2)n1C [4-Dimethylaminoantipyrin (=Aminopyrin)]
92.9

Return absolute recovery (reported value) for this molecule: CC[NH+]1CCCC1CNC(=O)c1cc(S(N)(=O)=O)ccc1OC (stereo not given) [Sulpirid]
101

Return absolute recovery (reported value) for this molecule: C#CCOc1ccc(CCNC(=O)C(OCC#C)c2ccc(Cl)cc2)cc1OC (stereo not given) [Mandipropamid]
112

Return absolute recovery (reported value) for this molecule: O=P1(NCCCl)OCCCN1CCCl (stereo not given) [Ifosfamid]
99.2

Return absolute recovery (reported value) for this molecule: C[NH+]1CCN2c3ccccc3Cc3ccccc3C2C1 (stereo not given) [Mianserin]
108

Return absolute recovery (reported value) for this molecule: CCCCc1oc2ccc(NS(C)(=O)=O)cc2c1C(=O)c1ccc(OCCC[NH+](CCCC)CCCC)cc1 [Dronedaron]
101

Return absolute recovery (reported value) for this molecule: COC(=O)N(OC)c1ccccc1COc1ccn(-c2ccc(Cl)cc2)n1 [Pyraclostrobin]
90.7

Return absolute recovery (reported value) for this molecule: CC1(C)C(=O)Oc2ccc(OS(C)(=O)=O)cc21 [Ethofumesat-2-keto]
82.2

Return absolute recovery (reported value) for this molecule: CCNc1nc(NC(C)C)nc(OC)n1 [Atraton]
102

The reported numbers originate from the supplement of paper PMC6470124.
